Origin of measurements: patent US12503439B2

As shown below, each of these compounds has a reported IC50 value.
# target_of_assay: truncated form of human NaV 1.8 with full channel activity (expressed in HEK cells) (Homo sapiens)
# Sequence (Q9Y5Y9 126-1722 limits assumed): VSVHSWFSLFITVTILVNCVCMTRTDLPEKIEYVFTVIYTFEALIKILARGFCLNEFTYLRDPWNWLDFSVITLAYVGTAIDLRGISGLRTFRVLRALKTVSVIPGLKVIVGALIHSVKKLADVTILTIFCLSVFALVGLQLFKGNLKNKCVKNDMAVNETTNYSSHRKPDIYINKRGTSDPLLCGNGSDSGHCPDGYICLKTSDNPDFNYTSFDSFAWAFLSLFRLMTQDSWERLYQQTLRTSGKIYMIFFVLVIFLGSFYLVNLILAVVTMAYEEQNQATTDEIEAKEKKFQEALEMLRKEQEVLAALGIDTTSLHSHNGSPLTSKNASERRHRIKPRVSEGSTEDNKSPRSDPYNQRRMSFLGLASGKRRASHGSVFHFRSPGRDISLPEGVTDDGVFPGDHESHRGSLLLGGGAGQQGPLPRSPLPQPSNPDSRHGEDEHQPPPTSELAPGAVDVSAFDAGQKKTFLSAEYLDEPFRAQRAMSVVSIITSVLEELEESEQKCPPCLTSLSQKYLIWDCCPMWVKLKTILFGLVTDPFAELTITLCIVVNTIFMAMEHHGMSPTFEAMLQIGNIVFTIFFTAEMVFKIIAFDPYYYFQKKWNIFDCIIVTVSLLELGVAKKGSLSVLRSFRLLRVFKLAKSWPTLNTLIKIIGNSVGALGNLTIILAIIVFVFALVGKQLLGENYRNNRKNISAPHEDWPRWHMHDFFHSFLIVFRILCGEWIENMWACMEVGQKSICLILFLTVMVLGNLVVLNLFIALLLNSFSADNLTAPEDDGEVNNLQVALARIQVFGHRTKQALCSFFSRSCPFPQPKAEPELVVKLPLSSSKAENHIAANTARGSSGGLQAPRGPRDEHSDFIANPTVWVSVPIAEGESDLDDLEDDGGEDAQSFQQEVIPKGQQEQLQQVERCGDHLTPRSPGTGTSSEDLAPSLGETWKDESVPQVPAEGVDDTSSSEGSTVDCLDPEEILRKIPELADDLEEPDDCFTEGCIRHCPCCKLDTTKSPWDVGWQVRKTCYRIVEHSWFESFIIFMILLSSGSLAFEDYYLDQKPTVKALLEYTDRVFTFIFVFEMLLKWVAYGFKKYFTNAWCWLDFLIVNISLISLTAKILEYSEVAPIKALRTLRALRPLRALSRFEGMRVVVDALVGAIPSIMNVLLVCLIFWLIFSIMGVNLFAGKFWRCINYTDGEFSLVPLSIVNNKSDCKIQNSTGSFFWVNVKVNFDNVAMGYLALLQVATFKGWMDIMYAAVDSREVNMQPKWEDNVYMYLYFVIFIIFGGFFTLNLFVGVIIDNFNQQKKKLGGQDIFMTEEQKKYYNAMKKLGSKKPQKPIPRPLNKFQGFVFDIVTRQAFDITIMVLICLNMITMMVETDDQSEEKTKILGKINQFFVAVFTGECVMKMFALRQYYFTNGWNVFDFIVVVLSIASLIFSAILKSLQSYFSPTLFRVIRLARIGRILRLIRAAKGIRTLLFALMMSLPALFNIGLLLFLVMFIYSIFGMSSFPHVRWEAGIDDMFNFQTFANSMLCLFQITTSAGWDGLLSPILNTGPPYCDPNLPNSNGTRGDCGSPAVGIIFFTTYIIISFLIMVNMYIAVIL
# assay_summary: E-VIPR assay detecting and measuring NaV inhibition properties (electrical stimulation, membrane potential FRET dyes)
# Format: cell-based
# assay_context: HEK cells expressing truncated human NaV 1.8, KIR2.1 BacMam; 11-point dose response; 30 min compound incubation; stimulation 10 Hz for 10 s; read-out: measured IC50 value in the E-VIPR Assay

# count of solved cases: 3
> print(dat)
                                   compound   test.value
1  NC(=O)c1nccc2[nH]c(-c3cc(F)c(C(F)(F)F)cc3Oc3ccc(F)c(F)c3O)cc(=O)c12  0.5 to 2 µM
2  Cc1c(C(F)(F)F)cnc(Oc2ccc(F)c(F)c2CO)c1-c1cc(=O)c2c(C(N)=O)nccc2[nH]1  0.5 to 2 µM
3  N#Cc1nccc2[nH]c(-c3cc4ccccc4nc3N3CCC(F)(F)C3)cc(=O)c12  0.5 to 2 µM

Report measured IC50; entry is COc1cc(F)ccc1Oc1cc(C(C)(C)C)cc(C)c1-c1cc(=O)n2ccccc2n1 ≥ 5 µM

Look up and report measured IC50 for this entry: COC1CCC(c2cc(C(C)(C)C)ncc2-c2cc(=O)c3c(C(N)=O)nccc3[nH]2)CC1 (centres unmarked) 0.5 to 2 µM
